These measurements were taken from patent US12447153B2.

# target_entity: EGFR wild type (EGFR WT) (Homo sapiens (Human))
# Sequence (P00533 25-1210): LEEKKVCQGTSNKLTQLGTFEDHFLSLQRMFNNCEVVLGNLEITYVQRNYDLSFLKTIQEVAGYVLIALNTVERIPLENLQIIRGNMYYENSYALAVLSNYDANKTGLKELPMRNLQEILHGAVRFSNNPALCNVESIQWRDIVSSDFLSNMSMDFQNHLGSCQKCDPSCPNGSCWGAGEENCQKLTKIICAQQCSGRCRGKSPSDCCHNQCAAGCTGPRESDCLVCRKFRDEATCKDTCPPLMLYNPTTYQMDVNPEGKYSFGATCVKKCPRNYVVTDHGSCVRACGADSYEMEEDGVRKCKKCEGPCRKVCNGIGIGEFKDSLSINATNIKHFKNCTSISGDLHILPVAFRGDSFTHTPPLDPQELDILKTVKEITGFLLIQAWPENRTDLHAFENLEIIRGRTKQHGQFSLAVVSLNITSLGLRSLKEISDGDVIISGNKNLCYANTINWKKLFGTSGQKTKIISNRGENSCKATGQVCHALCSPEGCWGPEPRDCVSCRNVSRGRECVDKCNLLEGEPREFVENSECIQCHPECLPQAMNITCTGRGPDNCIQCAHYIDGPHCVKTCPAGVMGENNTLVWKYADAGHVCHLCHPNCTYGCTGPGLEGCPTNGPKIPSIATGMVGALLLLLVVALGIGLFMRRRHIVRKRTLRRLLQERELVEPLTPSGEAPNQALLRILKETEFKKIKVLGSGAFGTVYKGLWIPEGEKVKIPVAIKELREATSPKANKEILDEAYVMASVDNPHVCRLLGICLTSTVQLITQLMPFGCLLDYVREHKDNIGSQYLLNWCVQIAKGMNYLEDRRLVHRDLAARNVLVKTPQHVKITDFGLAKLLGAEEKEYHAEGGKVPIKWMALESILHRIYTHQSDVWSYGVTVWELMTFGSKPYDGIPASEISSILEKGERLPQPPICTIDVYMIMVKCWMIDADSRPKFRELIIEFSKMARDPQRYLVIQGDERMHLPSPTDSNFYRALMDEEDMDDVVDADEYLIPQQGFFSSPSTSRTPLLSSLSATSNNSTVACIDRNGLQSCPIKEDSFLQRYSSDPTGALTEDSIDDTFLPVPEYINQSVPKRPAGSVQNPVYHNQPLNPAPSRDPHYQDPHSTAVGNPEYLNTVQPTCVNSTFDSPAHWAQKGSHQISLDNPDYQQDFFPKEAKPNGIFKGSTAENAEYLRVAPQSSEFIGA
# procedure_text: Cellular Phosphorylation Assay, Assay 5 (EGF-stimulated EGFR phosphorylation, NIH 3T3 cells)
# Format: cell-based
# measurement_conditions: cellular EGFR WT phosphorylation, EGF-stimulated
# reported IC50; entries follow

Example entries and their recorded answers appear below.
# compound, target_entity, IC50
records = [
    ("C=CC(=O)N1C[C@H]2CC[C@@H]1C[C@H]2c1ccc2ncnc(Nc3cc(C)c(Oc4cnc5c(c4)ncn5C)cc3F)c2n1 [Example 421]", "EGFR wild type (EGFR WT) (Homo sapiens (Human))", "≥ 5 µM"),
    ("C=CC(=O)N1[C@@H]2CC[C@H]1[C@H](c1ccc3ncnc(Nc4ccc(Oc5cnc6c(c5)ncn6C)c(C)c4F)c3n1)C2 [Example 419]", "EGFR wild type (EGFR WT) (Homo sapiens (Human))", "≥ 5 µM"),
]

Please turn your attention to the following entry.
The value of IC50 measured for the compound C=CC(=O)N1C2CCC1CN(c1ccc3ncnc(Nc4cc(C)c(Oc5ccn6ncnc6c5)cc4F)c3n1)C2 [Example 443] turned out to be 2.82 µM

====

# target_entity: ErbB2 with Exon 20 YVMA insertion (HER2-YVMA) (Homo sapiens (Human), UniProt P04626, INS775YVMA)
# Sequence (P04626 other isoform, or with tags, fused parts or gaps ins YVMA behind 775): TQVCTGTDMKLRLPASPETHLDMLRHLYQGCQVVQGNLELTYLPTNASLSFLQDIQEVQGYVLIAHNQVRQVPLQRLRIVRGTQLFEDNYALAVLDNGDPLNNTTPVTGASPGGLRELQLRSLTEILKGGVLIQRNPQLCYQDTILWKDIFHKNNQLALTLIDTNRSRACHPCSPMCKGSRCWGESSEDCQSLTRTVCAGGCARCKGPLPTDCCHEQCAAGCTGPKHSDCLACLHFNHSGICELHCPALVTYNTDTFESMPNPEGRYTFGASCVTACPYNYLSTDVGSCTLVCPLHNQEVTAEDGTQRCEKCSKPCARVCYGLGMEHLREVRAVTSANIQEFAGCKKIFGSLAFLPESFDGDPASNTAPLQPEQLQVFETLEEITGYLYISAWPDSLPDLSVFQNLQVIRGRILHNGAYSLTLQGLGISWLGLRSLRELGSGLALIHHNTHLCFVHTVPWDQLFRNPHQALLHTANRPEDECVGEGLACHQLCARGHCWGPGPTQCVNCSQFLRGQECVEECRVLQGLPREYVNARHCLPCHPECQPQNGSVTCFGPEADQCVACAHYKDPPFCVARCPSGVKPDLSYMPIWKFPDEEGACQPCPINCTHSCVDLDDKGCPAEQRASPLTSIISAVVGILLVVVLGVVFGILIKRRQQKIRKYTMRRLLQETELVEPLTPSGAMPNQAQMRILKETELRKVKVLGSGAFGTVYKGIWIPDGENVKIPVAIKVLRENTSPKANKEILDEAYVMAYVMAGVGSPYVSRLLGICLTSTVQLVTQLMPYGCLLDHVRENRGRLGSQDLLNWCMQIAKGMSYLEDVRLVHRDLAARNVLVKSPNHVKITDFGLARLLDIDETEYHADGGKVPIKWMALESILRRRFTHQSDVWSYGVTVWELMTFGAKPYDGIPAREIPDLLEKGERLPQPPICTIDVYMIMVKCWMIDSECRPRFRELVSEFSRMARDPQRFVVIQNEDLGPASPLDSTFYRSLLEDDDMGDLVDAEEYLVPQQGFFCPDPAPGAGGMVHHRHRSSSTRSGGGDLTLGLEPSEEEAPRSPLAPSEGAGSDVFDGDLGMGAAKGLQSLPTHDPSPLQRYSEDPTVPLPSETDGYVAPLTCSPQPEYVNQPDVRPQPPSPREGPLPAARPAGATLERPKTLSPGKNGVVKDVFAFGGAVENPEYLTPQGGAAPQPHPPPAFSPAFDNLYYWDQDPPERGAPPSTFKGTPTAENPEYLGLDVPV
# procedure_text: Cellular Phosphorylation Assay, Assay 4 (constitutive ErbB2 phosphorylation, NIH 3T3 cells)
# Type: cell-based
# measurement_conditions: cellular ErbB2 YVMA phosphorylation
readout_kind: IC50 (nM)
Return type: number; implicit unit nM.

Consider the reported IC50 for these compounds:
# compound, readout_kind, measurement
rows = [
    ("C=CC(=O)N1CCN(c2ccc3ncnc(Nc4cc(C)c(Oc5ccn6ncnc6c5)cc4F)c3n2)C[C@@H]1C1CC1", "IC50", 67.9),
    ("C=CC(=O)N1CCN(c2ccc3ncnc(Nc4ccc(Oc5cc(F)c6c(c5)ncn6C)c(C)c4)c3n2)C[C@@H]1C1CC1 (racemic)", "IC50", 18.1),
    ("C=CC(=O)N1CCN(c2ccc3ncnc(Nc4cc(C)c(Oc5ccc6c(c5)ncn6C)cc4F)c3n2)C[C@@H]1C1CC1", "IC50", 21.1),
    ("C=CC(=O)N1C2CCC1CN(c1ccc3ncnc(Nc4cc(Cl)c(Oc5ccn6ncnc6c5)cc4F)c3n1)C2", "IC50", 9.8),
    ("C=CC(=O)N1C[C@@H]2C[C@H]1CC[C@@H]2c1ccc2ncnc(Nc3ccc(Oc4ccc5c(c4)ncn5C)c(C)c3F)c2n1", "IC50", 36.5),
]

Now let's try a different one.
// C=CC(=O)N1CCC12CN(c1ccc3ncnc(Nc4ccc(Oc5ccn6ncnc6c5)c(Cl)c4F)c3n1)C2 : IC50 value = 4.1

====

Measured pIC50 of individual entries
# target_entity: ErbB2 WT (Homo sapiens (Human), UniProt P04626)
# Sequence (P04626 23-1255): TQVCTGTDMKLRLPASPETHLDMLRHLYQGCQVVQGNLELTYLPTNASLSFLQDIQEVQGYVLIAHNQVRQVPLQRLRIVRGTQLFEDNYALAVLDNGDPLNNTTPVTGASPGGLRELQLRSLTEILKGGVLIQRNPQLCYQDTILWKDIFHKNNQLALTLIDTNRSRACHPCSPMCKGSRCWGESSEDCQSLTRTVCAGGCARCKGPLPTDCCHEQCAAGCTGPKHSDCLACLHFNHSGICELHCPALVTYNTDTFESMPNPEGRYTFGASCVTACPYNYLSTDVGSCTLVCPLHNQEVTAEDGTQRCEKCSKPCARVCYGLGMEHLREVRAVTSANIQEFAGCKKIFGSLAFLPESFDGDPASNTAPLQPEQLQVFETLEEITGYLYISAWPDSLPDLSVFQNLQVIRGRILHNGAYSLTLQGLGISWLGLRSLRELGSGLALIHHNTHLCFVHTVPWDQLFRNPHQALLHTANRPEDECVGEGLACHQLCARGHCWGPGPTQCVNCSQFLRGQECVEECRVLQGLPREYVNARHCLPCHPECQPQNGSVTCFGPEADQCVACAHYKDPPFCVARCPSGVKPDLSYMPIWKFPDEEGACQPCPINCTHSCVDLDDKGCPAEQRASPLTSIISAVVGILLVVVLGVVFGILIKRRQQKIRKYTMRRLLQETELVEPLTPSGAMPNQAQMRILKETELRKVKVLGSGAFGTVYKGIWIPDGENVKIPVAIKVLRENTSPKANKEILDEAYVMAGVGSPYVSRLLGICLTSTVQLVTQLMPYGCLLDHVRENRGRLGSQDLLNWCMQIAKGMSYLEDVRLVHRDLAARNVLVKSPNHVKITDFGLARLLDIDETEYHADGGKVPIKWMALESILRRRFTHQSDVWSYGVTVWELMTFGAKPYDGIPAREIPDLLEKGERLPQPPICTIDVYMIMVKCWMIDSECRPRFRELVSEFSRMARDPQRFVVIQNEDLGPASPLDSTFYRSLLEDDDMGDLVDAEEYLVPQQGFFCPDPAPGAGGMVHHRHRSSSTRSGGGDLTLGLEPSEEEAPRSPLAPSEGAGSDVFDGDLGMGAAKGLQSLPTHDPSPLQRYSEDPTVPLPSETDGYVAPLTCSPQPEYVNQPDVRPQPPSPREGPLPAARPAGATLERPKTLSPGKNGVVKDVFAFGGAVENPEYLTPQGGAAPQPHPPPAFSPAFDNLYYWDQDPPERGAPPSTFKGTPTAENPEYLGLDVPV
# procedure_text: ErbB Enzyme Assay (HTRF KinEASE-TK), Assay 2
# Format: biochemical
# measurement_conditions: ErbB2 WT enzyme assay
Note on units: pIC50 is unitless, being -log10 of a concentration expressed in mol/L.

# molecule, measurement
data = [
    ("C=CC(=O)N1C[C@H](c2ccc3ncnc(Nc4cc(C)c(Oc5ccn6ncnc6c5)cc4F)c3n2)C[C@H]1C (mixture of isomers)", 6.66),
    ("C=CC(=O)N1CCN(c2ccc3ncnc(Nc4ccc(Oc5ccn6ncnc6c5)c(C)c4F)c3n2)C[C@@H]1C1CC1", 7.18),
    ("C=CC(=O)N1C[C@H]2C[C@@H]1[C@H](c1ccc3ncnc(Nc4ccc(Oc5ccn6ncnc6c5)c(C)c4F)c3n1)C2", 7.72),
    ("C=CC(=O)N1CCN(c2ccc3ncnc(Nc4cc(Cl)c(Oc5cnc6c(c5)ncn6C)cc4F)c3n2)C[C@H]1C1CC1", 6.51),
    ("C=CC(=O)N1[C@@H]2CC[C@H]1[C@H](c1ccc3ncnc(Nc4ccc(Oc5ccc6c(c5)ncn6C)c(C)c4F)c3n1)C2", 7.94),
]

// recorded pIC50 for C=CC(=O)N1[C@H]2CC[C@@H]1[C@H](c1ccc3ncnc(Nc4ccc(Oc5ccn6ncnc6c5)c(C)c4F)c3n1)CC2 : 7.55

The recorded pIC50 for entry C=CC(=O)N1C2CCC1CN(c1ccc3ncnc(Nc4cc(C)c(Oc5ccn6ncnc6c5)cc4F)c3n1)C2 equals 7.04

The molecule identified as C=CC(=O)N1CC2(CCN(c3ccc4ncnc(Nc5ccc(Oc6ccn7ncnc7c6)c(C)c5F)c4n3)C2)C1 registered its pIC50 at 6.98

The molecule identified as C=CC(=O)N1[C@H](C)CN(c2ccc3ncnc(Nc4cc(Cl)c(Oc5ccn6ncnc6c5)cc4F)c3n2)C[C@@H]1C registered its pIC50 at 7.76

The measured pIC50 associated with C=CC(=O)N1CCN(c2ccc3ncnc(Nc4cc(Cl)c(Oc5cnc6c(c5)ncn6C)cc4F)c3n2)CC1(C)C reads 6.34
